Exercise: state measured pIC50 for each of the compounds provided.
subject.of.test: hTLR9 (Homo sapiens)
Sequence (Q9NR96 26-1032): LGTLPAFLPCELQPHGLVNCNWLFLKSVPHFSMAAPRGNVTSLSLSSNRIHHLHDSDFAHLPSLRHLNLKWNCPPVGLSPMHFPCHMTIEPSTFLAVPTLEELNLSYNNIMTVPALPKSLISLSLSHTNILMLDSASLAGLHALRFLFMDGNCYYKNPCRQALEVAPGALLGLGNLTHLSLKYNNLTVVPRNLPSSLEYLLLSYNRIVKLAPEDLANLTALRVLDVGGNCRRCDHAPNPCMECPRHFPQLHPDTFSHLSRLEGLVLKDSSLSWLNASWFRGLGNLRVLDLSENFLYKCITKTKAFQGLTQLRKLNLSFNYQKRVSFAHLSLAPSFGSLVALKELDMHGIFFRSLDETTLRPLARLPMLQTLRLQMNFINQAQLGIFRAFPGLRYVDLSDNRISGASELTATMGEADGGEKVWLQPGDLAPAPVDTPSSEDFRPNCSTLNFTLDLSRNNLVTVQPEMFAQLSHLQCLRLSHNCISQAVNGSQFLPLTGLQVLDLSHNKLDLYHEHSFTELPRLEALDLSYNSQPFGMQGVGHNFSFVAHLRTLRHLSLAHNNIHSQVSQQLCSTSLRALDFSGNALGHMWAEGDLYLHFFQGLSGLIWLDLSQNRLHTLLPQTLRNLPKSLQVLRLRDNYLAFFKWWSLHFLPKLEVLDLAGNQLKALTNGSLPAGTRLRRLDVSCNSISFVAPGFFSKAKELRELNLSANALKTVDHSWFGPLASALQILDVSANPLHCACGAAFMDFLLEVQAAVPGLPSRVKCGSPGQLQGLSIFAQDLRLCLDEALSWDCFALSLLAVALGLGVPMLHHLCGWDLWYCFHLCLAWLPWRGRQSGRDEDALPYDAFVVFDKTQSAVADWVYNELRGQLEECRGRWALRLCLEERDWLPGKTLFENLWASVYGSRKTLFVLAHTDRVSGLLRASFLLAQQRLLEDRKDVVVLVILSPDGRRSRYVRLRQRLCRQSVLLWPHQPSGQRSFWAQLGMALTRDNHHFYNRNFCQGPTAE
measurement.description: HEK293-Blue-hTLR-9 cells assay (SEAP reporter, ODN2006 stimulation)
Format: cell-based
Parameters: host or cells: HEK293 (HEK-Blue hTLR9)
applied.conditions: HEK293-Blue-hTLR9 cells, ODN2006, 20 hrs; read-out: HEK/hTLR9 IC50
Field pIC50 (float): negative decimal logarithm of the concentration in molar.

Prompt: Recorded pIC50 for Cc1cc(N2CCN(C[C@H]3CN(c4ccc(C#N)c5ncccc45)C[C@@H](C)O3)CC2)nc(N2CC[C@@H](F)C(N)C2)n1 (single isomer, unassigned) , please?
Response: 6.98

Prompt: Recorded pIC50 for C[C@@H]1CN(c2ccc(C#N)n3ncc(F)c23)C[C@H](CN2CC(c3ccc(N4C[C@@H]5C[C@H]4CN5)nc3)C2)O1 , please?
Response: 6.97

Prompt: Recorded pIC50 for Cc1cc(N2CCN(C[C@H]3CN(c4ccc(C#N)c5ncccc45)C[C@@H](C)O3)CC2)nc(N2CCNCC(O)C2)n1 (stereo partly drawn) , please?
Response: 7.49

###

Exercise: state measured pIC50 for each of the compounds provided.
subject.of.test: human TLR8 (Homo sapiens, UniProt Q9NR97)
Sequence (Q9NR97 27-1041): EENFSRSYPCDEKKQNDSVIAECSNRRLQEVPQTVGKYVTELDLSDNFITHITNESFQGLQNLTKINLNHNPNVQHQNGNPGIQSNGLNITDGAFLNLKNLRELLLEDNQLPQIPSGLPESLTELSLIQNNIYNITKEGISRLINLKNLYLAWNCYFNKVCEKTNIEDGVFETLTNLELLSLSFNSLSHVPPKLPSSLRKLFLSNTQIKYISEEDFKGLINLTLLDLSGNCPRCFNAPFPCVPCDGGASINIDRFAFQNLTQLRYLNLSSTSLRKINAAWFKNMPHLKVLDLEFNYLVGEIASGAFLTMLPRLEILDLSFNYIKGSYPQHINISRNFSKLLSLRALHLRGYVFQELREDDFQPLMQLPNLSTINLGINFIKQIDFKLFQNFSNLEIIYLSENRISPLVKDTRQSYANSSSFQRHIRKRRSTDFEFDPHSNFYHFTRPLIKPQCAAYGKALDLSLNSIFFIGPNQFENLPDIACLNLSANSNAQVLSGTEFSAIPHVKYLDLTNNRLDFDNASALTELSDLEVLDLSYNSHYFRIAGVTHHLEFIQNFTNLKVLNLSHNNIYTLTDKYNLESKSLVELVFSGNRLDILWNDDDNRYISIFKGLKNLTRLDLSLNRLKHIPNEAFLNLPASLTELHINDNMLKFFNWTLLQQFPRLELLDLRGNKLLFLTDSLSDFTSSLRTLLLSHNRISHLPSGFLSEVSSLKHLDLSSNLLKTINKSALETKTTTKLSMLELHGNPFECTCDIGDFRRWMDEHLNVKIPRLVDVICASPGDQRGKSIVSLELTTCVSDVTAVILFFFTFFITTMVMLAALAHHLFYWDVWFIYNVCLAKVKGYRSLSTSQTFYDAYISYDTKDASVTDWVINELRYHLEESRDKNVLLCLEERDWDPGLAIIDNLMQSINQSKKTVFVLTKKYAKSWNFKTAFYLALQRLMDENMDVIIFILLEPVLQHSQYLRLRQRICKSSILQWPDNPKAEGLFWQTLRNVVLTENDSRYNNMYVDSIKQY
measurement.description: HEK293-Blue-hTLR-8 cells assay (SEAP reporter, R848 stimulation)
applied.conditions: HEK293-Blue-hTLR8 cells, R848, 20 hrs; read-out: HEK/hTLR8 IC50
Field pIC50 (float): negative decimal logarithm of the concentration in molar.

Prompt: Recorded pIC50 for Cc1nc(N2CCNCC2)nc(N2CCN(C[C@H]3CN(c4ccc(C#N)c5ncccc45)C[C@@H](C)O3)CC2)c1C , please?
Response: 8.05

Prompt: Recorded pIC50 for C[C@@H]1CN(c2ccc(C#N)c3ncccc23)C[C@H](CN2CC(c3ccc(N4CCNCC4)cc3)C2)O1 , please?
Response: 8.05

Prompt: Recorded pIC50 for [2H]c1ccc2c(N3C[C@H](CN4CC(c5ccc(N6C[C@@H](N)[C@H](OC)C6)nc5)C4)O[C@H](C)C3)ccc(C#N)c2n1 , please?
Response: 7.92

Prompt: Recorded pIC50 for C[C@@H]1CN(c2ccc(C#N)c3ncccc23)C[C@H](CN2CCN(c3ccc(N4CCNCC4)cn3)CC2)O1 , please?
Response: 8.00

Prompt: Recorded pIC50 for C[C@@H]1CN(c2ccc(C#N)c3ncccc23)C[C@H](CN2CCN(c3ccnc(N4CCN(C)CC4)n3)CC2)O1 , please?
Response: 8.52

Prompt: Recorded pIC50 for C[C@@H]1CN(c2ccc(C#N)c3ncccc23)C[C@H](CN2CCN(c3ccnc(N4CCN[C@@H](CO)C4)n3)CC2)O1 , please?
Response: 8.00

Prompt: Recorded pIC50 for [2H]c1ccc2c(N3C[C@H](CN4CCN(c5ccc(N6CC7(CNCCO7)C6)nc5)CC4)O[C@H](C)C3)ccc(C#N)c2n1 , please?
Response: 7.77

Prompt: Recorded pIC50 for [2H]c1ccc2c(N3C[C@H](CN4CCN(c5nc(OC)cc(N6CC(C)(N)C6)n5)CC4)O[C@H](C)C3)ccc(C#N)c2n1 , please?
Response: 8.40

Prompt: Recorded pIC50 for Cc1cc(N2CCN(C[C@H]3CN(c4ccc(C#N)c5ncccc45)C[C@@H](C)O3)CC2)nc(N2CCNCC2)n1 , please?
Response: 8.52

Prompt: Recorded pIC50 for C[C@@H]1CN(c2ccc(C#N)c3ncccc23)C[C@H](CN2CC(c3cccc(N4CCNCC4)c3)C2)O1 , please?
Response: 7.77

Prompt: Recorded pIC50 for C[C@@H]1CN(c2ccc(C#N)c3ncccc23)C[C@H](CN2CCN(c3ccc([C@@H]4CNCCO4)cc3)CC2)O1 , please?
Response: 7.92

Prompt: Recorded pIC50 for [2H]c1nc2c(C#N)ccc(N3C[C@H](CN4CCN(c5nc(C)cc(N6CC(N)C6)n5)CC4)O[C@H](C)C3)c2nc1[2H] , please?
Response: 9.00

Prompt: Recorded pIC50 for Cc1cc(N2CC(C)(N)C2)cnc1N1CCN(C[C@H]2CN(c3ccc(C#N)n4ncc(F)c34)C[C@@H](C)O2)CC1 , please?
Response: 7.31

Prompt: Recorded pIC50 for C[C@@H]1CN(c2ccc(C#N)c3ncccc23)C[C@H](CN2CCN(c3cccc(N4CCNCC(O)C4)n3)CC2)O1 (some centres unmarked) , please?
Response: 7.49

###

Exercise: state measured inhibition at 5 min, 10 µM for each of the molecules provided.
subject.of.test: CYP3A4 (Homo sapiens, UniProt P08684)
Construct: tissue BD-Gentest 452117; host or cells: human liver microsomes
Sequence (P08684 whole entry): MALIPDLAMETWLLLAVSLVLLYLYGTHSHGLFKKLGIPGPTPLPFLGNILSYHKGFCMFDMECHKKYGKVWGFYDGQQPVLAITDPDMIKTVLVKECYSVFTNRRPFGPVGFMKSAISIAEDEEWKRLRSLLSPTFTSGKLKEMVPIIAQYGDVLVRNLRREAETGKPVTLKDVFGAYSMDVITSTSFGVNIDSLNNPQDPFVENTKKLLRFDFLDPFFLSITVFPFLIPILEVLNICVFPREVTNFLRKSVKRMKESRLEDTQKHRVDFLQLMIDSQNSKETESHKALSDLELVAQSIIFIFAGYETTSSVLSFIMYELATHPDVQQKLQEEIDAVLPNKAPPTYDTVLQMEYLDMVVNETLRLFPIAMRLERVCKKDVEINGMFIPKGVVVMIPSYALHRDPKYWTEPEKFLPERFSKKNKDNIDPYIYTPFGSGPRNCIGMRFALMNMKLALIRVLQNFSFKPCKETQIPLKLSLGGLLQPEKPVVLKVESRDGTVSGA
measurement.description: CYP inhibition assay in human liver microsome, CYP3A4
Type: in vitro ADME
applied.conditions: human, human liver microsomes, probe midazolam 5 μM, substrate midazolam 5 μM, third value of 2C9/2D6/3A4
Express it in %; write the number only.

Prompt: Recorded inhibition at 5 min, 10 µM for COC1CNC[C@H]1Nc1cccc(N2CCN(C[C@H]3CN(c4ccc(C#N)c5ncccc45)C[C@@H](C)O3)CC2)n1 (stereo in doubt) [Example 39] , please?
Response: 23.5

Prompt: Recorded inhibition at 5 min, 10 µM for COC1CN(c2ccc(N3CCN(C[C@H]4CN(c5ccc(C#N)c6ncccc56)C[C@@H](C)O4)CC3)cn2)CC1N (stereo partly shown) [Example 43] , please?
Response: 16

Prompt: Recorded inhibition at 5 min, 10 µM for Cc1ccc(N2C[C@H](CN3CCN(c4nccc(N5CCNCC5)n4)CC3)O[C@H](C)C2)c2nccnc12 [Example 116] , please?
Response: 8

Prompt: Recorded inhibition at 5 min, 10 µM for C[C@@H]1CN(c2ccc(C#N)c3ncccc23)C[C@H](CN2CC(c3ccc(N4CCNCC4)cc3)C2)O1 [Example 3] , please?
Response: 4.5

Prompt: Recorded inhibition at 5 min, 10 µM for C[C@@H]1CN(c2ccc(C#N)c3ncccc23)C[C@H](CN2CCC(C#N)(c3ccc(N4CCNCC4)cc3)CC2)O1 [Example 11] , please?
Response: 11

Prompt: Recorded inhibition at 5 min, 10 µM for C[C@@H]1CN(c2ccc(C#N)c3ncccc23)C[C@H](CN2CCN(c3ccc(N4CCNCC4)cn3)CC2)O1 [Example 8] , please?
Response: -3.5

Prompt: Recorded inhibition at 5 min, 10 µM for C[C@@H]1CN(c2ccc(C#N)n3ncc(F)c23)C[C@H](CN2CC(c3ccc(N4CC(C)(N)C4)nc3)C2)O1 [Example 158] , please?
Response: -0.5

###

subject.of.test: human TLR8 (Homo sapiens, UniProt Q9NR97)
measurement.description: HEK293-Blue-hTLR-8 cells assay (SEAP reporter, R848 stimulation)
applied.conditions: HEK293-Blue-hTLR8 cells, R848, 20 hrs; read-out: HEK/hTLR8 IC50
parameter.measured: IC50 (nM)
Express it in nM; write the number only.

Prompt: Recorded IC50 for Cc1cc(N2CCN(C[C@H]3CN(c4ccc(C#N)c5ncccc45)C[C@@H](C)O3)CC2)nc(N2C[C@@H](N)C[C@@H](F)C2)n1 [Example 77] , please?
Response: 2

Prompt: Recorded IC50 for C[C@@H]1CN(c2ccc(C#N)c3ncccc23)C[C@H](CN2CCC(C#N)(c3ccc(N4CCNCC4)cc3)CC2)O1 [Example 11] , please?
Response: 13

Prompt: Recorded IC50 for Cc1cc(N2CCN(C[C@H]3CN(c4ccc(C#N)c5ncccc45)C[C@@H](C)O3)CC2)nc(N2CCOCC(N)C2)n1 (stereo partly drawn) [Example 56] , please?
Response: 6

Prompt: Recorded IC50 for CO[C@H]1CN(c2nc(C)cc(N3CCN(C[C@H]4CN(c5ccc(C#N)c6ncccc56)C[C@@H](C)O4)CC3)n2)C[C@@H]1N (single isomer, unassigned) [Example 69A] , please?
Response: 2

Prompt: Recorded IC50 for Cc1cc(N2CCN(C[C@H]3CN(c4ccc(C#N)c5ncccc45)C[C@@H](C)O3)CC2)nc(N2C[C@@H](N)[C@H](F)C2)n1 [Example 79] , please?
Response: 2

Prompt: Recorded IC50 for CO[C@@H]1CN(c2nc(C)cc(N3CCN(C[C@H]4CN(c5ccc(C#N)c6ncccc56)C[C@@H](C)O4)CC3)n2)C[C@@H]1N [Example 72] , please?
Response: 3

Prompt: Recorded IC50 for C[C@@H]1CN(c2ccc(C#N)c3nccnc23)C[C@H](CN2CCN(c3nccc(N4C[C@@H](N)[C@H](F)C4)n3)CC2)O1 [Example 119] , please?
Response: 1

Prompt: Recorded IC50 for C[C@@H]1CN(c2ccc(C#N)n3ncc(F)c23)C[C@H](CN2CCN(c3ccc(N4CC(C)(N)C4)nc3)CC2)O1 [Example 154] , please?
Response: 50

Prompt: Recorded IC50 for Cc1cc(N2CCN(C[C@H]3CN(c4ccc(C#N)c5ncccc45)C[C@@H](C)O3)CC2)nc(N2C[C@H](N)C[C@H](F)C2)n1 (relative stereo) [Example 74] , please?
Response: 3

Prompt: Recorded IC50 for Cc1cc(N2CCN(C[C@H]3CN(c4ccc(C#N)c5ncccc45)C[C@@H](C)O3)CC2)nc(NC2CNCC2F)n1 (stereo in doubt) [Example 73] , please?
Response: 17

Prompt: Recorded IC50 for CO[C@H]1CN(c2nccc(N3CCN(C[C@H]4CN(c5ccc(C#N)c6nccnc56)C[C@@H](C)O4)CC3)n2)C[C@@H]1N [Example 99] , please?
Response: 1

Prompt: Recorded IC50 for C[C@@H]1CN(c2ccc(C#N)c3nccnc23)C[C@H](CN2CCN(c3ccnc(N4CC[C@@H](N)[C@H](F)C4)n3)CC2)O1 [Example 113] , please?
Response: 1
